Tested On: T1, ZFP SBS#1367 (synthetic)
T1 chain: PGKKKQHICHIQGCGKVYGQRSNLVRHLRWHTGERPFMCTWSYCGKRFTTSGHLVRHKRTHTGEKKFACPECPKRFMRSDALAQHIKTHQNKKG
Assay Details: EMSA
Particulars: tags: MBP fusion
Quantity Name: pKd
// scale note: pKd = -log10(conc_M); give the bare number

Inquiry: Fill in reported pKd for this entry: ATGGGTGAA (dsDNA) DNA 1: ATGGGTGAA DNA 2: TTCACCCAT
Reply text: 8.99
